Data credit: a melting point compilation (Tetko et al.; mined from patent text by program, amines drawn as free bases though some values may be those of a salt)

Kindly supply the reported melting point values for the records listed here.
Numbers only, in °C.

COc1cccc(-c2ccc3ccc(NC(=O)c4cccc(Br)c4)nc3n2)c1	104

Turning now to a further compound:
melting point reading for CON=C1C(C)(C)c2cc3c(cc2C1(C)C)N(SCc1nccc(OC)c1C)CN3 : 100

----------
observed-property: melting point

Solved entries:
CCCn1c(=O)[nH]c2ccc(C(=O)c3nc(NS(C)(=O)=O)c4ccccn34)cc2c1=O	334 °C
CCOC(=O)[C@@H](O)[C@@H]1OC(=O)c2ccc(OC)cc21	121 to 122 °C
c1ccc(CN2CCC3(Cc4ccccc4O3)C2)cc1 (stereo not given)	43 to 45 °C

Please supply melting point for each of the following items, keeping them in order.
1. CC1=C(C)C(Cl)N(c2ccc(Cl)c(Cl)c2)C1=O (stereo not given)
2. Cc1nn(C)c2c(=O)[nH]cnc12
3. CC1(C)CCC(C)(C)c2cc(-c3cc(-c4ccc(C=O)cc4)ccc3-c3ccccc3)ccc21
4. CC1c2cccc3c2N(CC3)c2ccccc2N1C(=O)CCCCl (stereo not given)

Solution:
1. 95 to 96 °C
2. 303 to 305 °C
3. 120 to 122 °C
4. 88 to 90 °C

# batch: return melting point for each of the 7 compounds below
1. CCOC(=O)C1=C(C)NC(CO)=C(C(=O)OCC)C1c1ccccc1C(F)(F)F (stereo not given)
2. CCC(=O)Nc1cc(C(=O)O)ccc1N1C(=O)CCC1(CO)CO
3. CCCCc1nc2cccc(C(=O)OC)c2n1Cc1ccc(-c2c(C#N)cnc3ccccc23)cc1
4. Cn1cncc1C(O)(c1ccc(CO)cc1)c1ccc2c(c1)c(-c1cccc(Cl)c1)cc(=O)n2C (stereo not given)
5. COc1cc2c(Oc3cnc4[nH]ccc4c3)ncnc2cc1OCCCN1CCCC1
6. CC(=O)Oc1ccc2ncc3c(c2c1)CCCC3
7. Cn1cc(-c2ccncn2)cc(Br)c1=O

Solution:
1. 147 to 148 °C
2. 217 to 218 °C
3. 103 to 104 °C
4. 273 °C
5. 184 to 186 °C
6. 118 to 119 °C
7. 208 to 210 °C

Go through the items and report each one's melting point.
1. COc1cc2occ(C(=O)Nc3cccnc3)c2cc1C(F)(F)F
2. CCCC(=O)Nc1ccc(-c2cc(C(C)(C)C)c(O)c(C(C)(C)C)c2)cc1
3. O=C(CCCCCNCc1cc2nc(-c3cccc4[nH]ncc34)nc(N3CCOCC3)c2s1)NO
4. O=C(O)Cn1c(=O)n(S(=O)(=O)c2ccc(Cl)cc2)c(=O)c2ccc(Cl)cc21
5. C[C@]1(CN2CCN(c3cc(-c4ccccc4)nc(-c4ccccc4)n3)CC2)Cn2cc([N+](=O)[O-])nc2O1

Solution:
["219 to 221 °C", "180 to 181 °C", "128 to 130 °C", "194 to 195 °C", "202 to 205 °C"]

Recorded melting point (compound CCCn1c(=O)c2[nH]c(/C=C/c3cc(OC)c(OC)cc3Br)nc2n(CCC)c1=O ): 248 to 250 °C
